# Test system: Pasteurella multocida PM 10775 (080130003051, BRD field isolate)
# test.method.notes: MIC, broth-microdilution (CLSI VET01-A4), strain PM 10775
# Type: cell-based
# particulars: Pasteurella multocida strain PM 10775, broth-microdilution; unit assumed
assay.readout: MIC PM 10775

- molecule: "COCCCNCc1ccc(C#Cc2ccc(C(=O)N[C@@H](CO)C(=O)NO)cc2)cc1 [Compound 153]"
  MIC PM 10775: "≤ 0.1 µg/mL"
- molecule: "CC(C)[C@H](NC(=O)c1ccc(C#Cc2ccc(CN3CCc4ccccc4C3)cc2)cc1)C(=O)NO [Compound 102]"
  MIC PM 10775: "≤ 0.1 µg/mL"
- molecule: "CC(C)[C@H](NC(=O)c1ccc(C#Cc2ccc(CNCc3cccs3)cc2)cc1)C(=O)NO [Compound 171]"
  MIC PM 10775: "≤ 0.1 µg/mL"
- molecule: "CC(C)(O)[C@H](NC(=O)c1ccc(C#Cc2ccc(CNCc3cccnc3)nc2)cc1)C(=O)NO [Compound 330]"
  MIC PM 10775: "≤ 0.1 µg/mL"
- molecule: "CSC(C)(C)[C@H](NC(=O)c1ccc(C#Cc2ccc(CNCc3ncc(C)o3)s2)cc1)C(=O)NO [Compound 310]"
  MIC PM 10775: "0.4 µg/mL"

Dear colleague, could you please provide MIC PM 10775 for the molecules listed below?
1. CON=C(C)[C@H](NC(=O)c1ccc(C#Cc2ccc(CN3CCOCC3)cc2)cc1)C(=O)NO [Compound 381]
2. O=C(N[C@@H](CO)C(=O)NO)c1ccc(C#Cc2ccc(CNCc3ccc(C(F)(F)F)cc3)cc2)cc1 [Compound 89]
3. CC(C)([C@H](NC(=O)c1ccc(C#Cc2ccc(CNC3CC3)cc2)cc1)C(=O)NO)S(C)(=O)=O [C.255]

["0.2 µg/mL", "≤ 0.1 µg/mL", "≤ 0.1 µg/mL"]

All values here come from patent US11034650B2.
